meta.source: patent US20200017592A1

System under test: Macaca fascicularis IL-36R extracellular domain expressed with a C-terminal myc-myc-hexahistidine tag (Macaca fascicularis)
Method summary: SPR (Biacore 4000), mAb captured on anti-human Fc, 25°C
Measurement type: t½
Respond with a number, then the unit of measure.

Name the reported t½ value associated with the binder H4H14709P (antibody, human IgG4 S228P, kappa, V domains shown) VH: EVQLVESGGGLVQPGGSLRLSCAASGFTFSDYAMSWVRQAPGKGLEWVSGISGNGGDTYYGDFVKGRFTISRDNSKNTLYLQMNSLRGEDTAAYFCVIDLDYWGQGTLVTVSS VL: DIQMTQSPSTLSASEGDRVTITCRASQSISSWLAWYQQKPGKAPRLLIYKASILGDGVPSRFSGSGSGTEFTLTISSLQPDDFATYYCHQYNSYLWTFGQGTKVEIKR 29 min
